Recorded values, source PubChem BioAssay AID1845201.

- System: COR L88 complex tumor spheroid viability
- protocolDetails: Anticancer human tumor COR L88 cell line growth inhibition;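 further: compound exposure lasted 7 days before viability readout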;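 on viability, T/C: percent of DMSO vehicle-treated spheroids = 100%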
- studyConditions: second compound 1 µM; first compound 0.0316 µM; stronger effect = lower value
Listed next: entries and their corresponding viability, T/C.
Write it as a number; the unit % goes unstated.

Consider COc1cc(C)[nH]c(=O)c1CN1CCc2c(Cl)cc(C(OC)C3COC3)c(Cl)c2C1=O (stereo unspecified) + Cn1nnc2c(C(N)=O)ncn2c1=O . Its measured viability, T/C is 76.1

Please fill in: viability, T/C reported for COc1ccc([C@@H](O)c2cc(-c3ncnc4cc(N5CCOCC5)ccc34)c(F)cc2Cl)nn1 + Cn1nnc2c(C(N)=O)ncn2c1=O = 96.4

Value of measured viability, T/C for the entry CC1COCCN1c1cc(-c2ccnn2C)c2ccnc(-c3ccn[nH]3)c2n1 (stereo unspecified) + Cn1nnc2c(C(N)=O)ncn2c1=O : 80.7

====

// values below are reported viability, T/C
- Tested on: COR L88 complex tumor spheroid viability
- protocolDetails: Anticancer human tumor COR L88 cell line growth inhibition;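 further: compound exposure lasted 7 days before viability readout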;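 on viability, T/C: percent of DMSO vehicle-treated spheroids = 100%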
- studyConditions: second compound 0.3 µM; first compound 10 µM; stronger effect = lower value

Answered examples (4):
CC(C)n1c(=O)n(C)c2cnc3cc(F)c(-c4ccc(OCCCN5CCCCC5)nc4)cc3c21 + CC[C@@]1(O)C(=O)OCc2c1cc1n(c2=O)Cc2cc3c(CN(C)C)c(O)ccc3nc2-1 = 14.7%
CC1COCCN1c1cc(-c2ccnn2C)c2ccnc(-c3ccn[nH]3)c2n1 (stereo unspecified) + CC[C@@]1(O)C(=O)OCc2c1cc1n(c2=O)Cc2cc3c(CN(C)C)c(O)ccc3nc2-1 = 1.1%
COc1ccc([C@@H](O)c2cc(-c3ncnc4cc(N5CCOCC5)ccc34)c(F)cc2Cl)nn1 + CC[C@@]1(O)C(=O)OCc2c1cc1n(c2=O)Cc2cc3c(CN(C)C)c(O)ccc3nc2-1 = 8.14%
COc1cc(C)[nH]c(=O)c1CN1CCc2c(Cl)cc(C(OC)C3COC3)c(Cl)c2C1=O (stereo unspecified) + CC[C@@]1(O)C(=O)OCc2c1cc1n(c2=O)Cc2cc3c(CN(C)C)c(O)ccc3nc2-1 = 37.5%

Documented viability, T/C of [2H]c1nc(C)nc([2H])c1-c1cc(NC[C@@H](C)c2cccc3c(C(=O)NC)ccnc23)ncn1 + CC[C@@]1(O)C(=O)OCc2c1cc1n(c2=O)Cc2cc3c(CN(C)C)c(O)ccc3nc2-1 : 42.4%

So, Cc1cc(C)c(CNC(=O)c2cc(-c3ccc(CN4CCOCC4)cc3)cc3c2cnn3C2CCCC2)c(=O)[nH]1 + CC[C@@]1(O)C(=O)OCc2c1cc1n(c2=O)Cc2cc3c(CN(C)C)c(O)ccc3nc2-1 ? Its viability, T/C was 30.4%

====

Reported viability, T/C by item:
- System: COR L88 complex tumor spheroid viability
- protocolDetails: Anticancer human tumor COR L88 cell line growth inhibition;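 further: compound exposure lasted 7 days before viability readout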;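 on viability, T/C: percent of DMSO vehicle-treated spheroids = 100%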
- studyConditions: second compound 1 µM; first compound 10 µM; stronger effect = lower value
Give a bare numeral; the unit % is implied.

Use the examples below as a reference point.
[2H]c1nc(C)nc([2H])c1-c1cc(NC[C@@H](C)c2cccc3c(C(=O)NC)ccnc23)ncn1 + Cn1nnc2c(C(N)=O)ncn2c1=O = 97
COc1cc(C)[nH]c(=O)c1CN1CCc2c(Cl)cc(C(OC)C3COC3)c(Cl)c2C1=O (stereo not drawn) + Cn1nnc2c(C(N)=O)ncn2c1=O = 66.6

Please turn your attention to the following entry.
Lab note: Cc1cc(C)c(CNC(=O)c2cc(-c3ccc(CN4CCOCC4)cc3)cc3c2cnn3C2CCCC2)c(=O)[nH]1 + Cn1nnc2c(C(N)=O)ncn2c1=O gave viability, T/C of 53.3

====

- System: COR L88 complex tumor spheroid viability
- protocolDetails: Anticancer human tumor COR L88 cell line growth inhibition;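 further: compound exposure lasted 7 days before viability readout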;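 on viability, T/C: percent of DMSO vehicle-treated spheroids = 100%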
- studyConditions: second compound 94.9 pM; first compound 0.1 µM; stronger effect = lower value
measuredParameter: viability, T/C (%)
Use % as the unit, but write only the number.

Example entries and their recorded answers appear below.
[2H]c1nc(C)nc([2H])c1-c1cc(NC[C@@H](C)c2cccc3c(C(=O)NC)ccnc23)ncn1 + COc1cc2c(cc1O)CCNC21CSC2c3c(OC(C)=O)c(C)c4c(c3C(COC1=O)N1C(O)C3Cc5cc(C)c(OC)c(O)c5C(C21)N3C)OCO4 = 100
COc1cc(C)[nH]c(=O)c1CN1CCc2c(Cl)cc(C(OC)C3COC3)c(Cl)c2C1=O (stereo unspecified) + COc1cc2c(cc1O)CCNC21CSC2c3c(OC(C)=O)c(C)c4c(c3C(COC1=O)N1C(O)C3Cc5cc(C)c(OC)c(O)c5C(C21)N3C)OCO4 = 84.2
Cc1cc(C)c(CNC(=O)c2cc(-c3ccc(CN4CCOCC4)cc3)cc3c2cnn3C2CCCC2)c(=O)[nH]1 + COc1cc2c(cc1O)CCNC21CSC2c3c(OC(C)=O)c(C)c4c(c3C(COC1=O)N1C(O)C3Cc5cc(C)c(OC)c(O)c5C(C21)N3C)OCO4 = 107

# compound CC(C)n1c(=O)n(C)c2cnc3cc(F)c(-c4ccc(OCCCN5CCCCC5)nc4)cc3c21 + COc1cc2c(cc1O)CCNC21CSC2c3c(OC(C)=O)c(C)c4c(c3C(COC1=O)N1C(O)C3Cc5cc(C)c(OC)c(O)c5C(C21)N3C)OCO4 ; its viability, T/C = 103

For CC1COCCN1c1cc(-c2ccnn2C)c2ccnc(-c3ccn[nH]3)c2n1 (stereo unspecified) + COc1cc2c(cc1O)CCNC21CSC2c3c(OC(C)=O)c(C)c4c(c3C(COC1=O)N1C(O)C3Cc5cc(C)c(OC)c(O)c5C(C21)N3C)OCO4 the compound record lists viability, T/C as 36.9

Sure, the documented viability, T/C for COc1ccc([C@@H](O)c2cc(-c3ncnc4cc(N5CCOCC5)ccc34)c(F)cc2Cl)nn1 + COc1cc2c(cc1O)CCNC21CSC2c3c(OC(C)=O)c(C)c4c(c3C(COC1=O)N1C(O)C3Cc5cc(C)c(OC)c(O)c5C(C21)N3C)OCO4 is 108

====

# key: entry, value: IC50
- Test system: COR L88 complex tumor spheroid viability
- protocolDetails: Anticancer human tumor COR L88 cell line growth inhibition;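 further: compound exposure lasted 7 days before viability readout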
- studyConditions: curve of first compound; second compound 10 µM
// units = µM; emit number, no label

Consider the worked cases shown below.
Cc1sc2c(c1C)C(c1ccc(Cl)cc1)=NC(CC(=O)Nc1ccc(O)cc1)c1nnc(C)n1-2 (stereo unspecified) + Cn1nnc2c(C(N)=O)ncn2c1=O = 0.61
O=C(c1cc(Cc2n[nH]c(=O)c3ccccc23)ccc1F)N1CCN(C(=O)C2CC2)CC1 + Cn1nnc2c(C(N)=O)ncn2c1=O = 9.36
Cn1ncnc1[C@H]1c2n[nH]c(=O)c3cc(F)cc(c23)N[C@@H]1c1ccc(F)cc1 + Cn1nnc2c(C(N)=O)ncn2c1=O = 0.0577

Entry under test: COc1cc(C)[nH]c(=O)c1CN1CCc2c(Cl)cc(C(OC)C3COC3)c(Cl)c2C1=O (stereo unspecified) + Cn1nnc2c(C(N)=O)ncn2c1=O . Its IC50 was 0.549

====

- Tested on: COR L88 complex tumor spheroid viability
- protocolDetails: Anticancer human tumor COR L88 cell line growth inhibition;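 further: compound exposure lasted 7 days before viability readout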;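 on viability, T/C: percent of DMSO vehicle-treated spheroids = 100%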
- studyConditions: second compound 94.9 pM; first compound 3.16 µM; stronger effect = lower value
This listing pairs compounds with measured viability, T/C.
Supply the numeric figure in %, leaving out any unit text.

[2H]c1nc(C)nc([2H])c1-c1cc(NC[C@@H](C)c2cccc3c(C(=O)NC)ccnc23)ncn1 + COc1cc2c(cc1O)CCNC21CSC2c3c(OC(C)=O)c(C)c4c(c3C(COC1=O)N1C(O)C3Cc5cc(C)c(OC)c(O)c5C(C21)N3C)OCO4 = 94.6

Now consider the entry below.
Reported viability, T/C ( COc1ccc([C@@H](O)c2cc(-c3ncnc4cc(N5CCOCC5)ccc34)c(F)cc2Cl)nn1 + COc1cc2c(cc1O)CCNC21CSC2c3c(OC(C)=O)c(C)c4c(c3C(COC1=O)N1C(O)C3Cc5cc(C)c(OC)c(O)c5C(C21)N3C)OCO4 ) = 57.4

====

- System: COR L88 complex tumor spheroid viability
- protocolDetails: Anticancer human tumor COR L88 cell line growth inhibition;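 further: compound exposure lasted 7 days before viability readout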;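 on viability, T/C: percent of DMSO vehicle-treated spheroids = 100%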
- studyConditions: second compound 100 µM; first compound 3.16 µM; stronger effect = lower value
We label by threshold. Values of viability, T/C strictly beneath 30% are label 1. Values of 30% and up are label 0.

Study these solved cases before continuing.
CC(C)n1c(=O)n(C)c2cnc3cc(F)c(-c4ccc(OCCCN5CCCCC5)nc4)cc3c21 + Cn1nnc2c(C(N)=O)ncn2c1=O = label 0
COc1cc(C)[nH]c(=O)c1CN1CCc2c(Cl)cc(C(OC)C3COC3)c(Cl)c2C1=O (stereo unspecified) + Cn1nnc2c(C(N)=O)ncn2c1=O = label 0
COc1ccc([C@@H](O)c2cc(-c3ncnc4cc(N5CCOCC5)ccc34)c(F)cc2Cl)nn1 + Cn1nnc2c(C(N)=O)ncn2c1=O = label 0

Quick check: viability, T/C of CC1COCCN1c1cc(-c2ccnn2C)c2ccnc(-c3ccn[nH]3)c2n1 (stereo unspecified) + Cn1nnc2c(C(N)=O)ncn2c1=O under 30%?
label 1

Is 30% strictly greater than the compound's reported viability, T/C? compound: [2H]c1nc(C)nc([2H])c1-c1cc(NC[C@@H](C)c2cccc3c(C(=O)NC)ccnc23)ncn1 + Cn1nnc2c(C(N)=O)ncn2c1=O
label 0

For this compound, is viability, T/C lower than 30%? Cc1cc(C)c(CNC(=O)c2cc(-c3ccc(CN4CCOCC4)cc3)cc3c2cnn3C2CCCC2)c(=O)[nH]1 + Cn1nnc2c(C(N)=O)ncn2c1=O
label 0
